Type: in vivo
Details: mice; Table 1
TEST READOUT: % Weight Loss (%)
Reply with just the number (in %).

- COMPOUND: "C=C1C(=O)O[C@@H]2[C@H]3C(C)=CC[C@@]34O[C@@]4(C)CC[C@@H]12"
  READOUT UNITS: "%"
  DATA VALUE: 2.69

Q: # query: % Weight Loss of entry CC1C/C=C/C2C3OC3(C)C(C)C3C(Cc4ccccc4)NC(=O)C23OC(=O)O/C=C/C(C)(O)C1=O (centres unmarked)
A: 0.00

Q: # query: % Weight Loss of entry `CC(=O)O[C@@H]1/C=C/[C@](C)(O)C[C@@H](C)C/C=C/[C@H]2[C@@H]3O[C@]3(C)[C@@H](C)[C@H]3[C@H](Cc4ccccc4)NC(=O)[C@@]312`
A: 2.46

Q: # query: % Weight Loss of entry CC1C2C(Cc3ccccc3)NC(=O)C2(O)C(CO)C2OC12C (centres unmarked)
A: 4.00

Q: # query: % Weight Loss of entry C=C1C(=O)OC2C1CCC(=C)C1CC3OC3(C)C12 (centres unmarked)
A: 6.92
